Molecular target: Beta-adrenergic receptor kinase 1 (Homo sapiens)
Experiment: GRK2 binders displacing RNA aptamer, biochemical, validation, human GRK2, bead flow cytometry (AID 488806)
Conditions: bead-bound GRK2, FAM-aptamer displacement, at 10 µM, stronger effect = higher value
I'd be grateful if you could share measured aptamer binding inhibition for these entries.
The response must be a number in % with no trailing unit.

The molecule listed as CCc1ccc2oc(=O)cc(CN3CCC(C)CC3)c2c1 has a reported aptamer binding inhibition of 0

The molecule listed as CC(C)Oc1ccc(C2CC(=O)N(c3ccc(C(=O)O)cc3)C2=O)cc1 (centres undefined) has a reported aptamer binding inhibition of -4

The molecule listed as CCOC(=O)C1=C(N)Oc2c(c(=O)[nH]c3ccccc23)C1c1ccccc1 (centres undefined) has a reported aptamer binding inhibition of 6

The molecule listed as CC1(C)[C@@H](O)CC[C@]2(C)[C@H]3C(=O)C=C4[C@@H]5C[C@@](C)(C(=O)O)CC[C@]5(C)CC[C@@]4(C)[C@]3(C)CC[C@@H]12 has a reported aptamer binding inhibition of 7

The molecule listed as CCN1C(=O)C(CC(=O)Nc2ccc(OC)cc2)N(CCc2ccc(F)cc2)C1=S (centres undefined) has a reported aptamer binding inhibition of 2

The molecule listed as COc1ccc(NC2=C(Cl)C(=O)N(c3ccccc3)C2=O)c(OC)c1 has a reported aptamer binding inhibition of 1

The molecule listed as COc1ccc(C(=O)N2c3cc4c(cc3C(C)=CC2(C)C)OCO4)cc1 has a reported aptamer binding inhibition of 5

The molecule listed as O=C1CCCC(=O)C1=Cc1c[nH]c2ccccc12 has a reported aptamer binding inhibition of 3

The molecule listed as CN1CC2CCCC3(C1)C(=O)NC1(CCCCC1)N=C23 (centres undefined) has a reported aptamer binding inhibition of 1

====

Target: GTPase HRas (Homo sapiens)
Assay: Ras wt fluorescent GTP loading blockade – biochemical, wildtype, multiplex bead flow cytometry, dose response (AID 1335)
Settings: bead-based flow cytometry, Bodipy-GTP binding to GST-Ras; at 100 µM (top of the series) unless noted
GTP binding, percent of control under 70% gets 1, anything at or over 70% gets -1.

Exam item: Determine whether this compound shows GTP binding, percent of control lower than 70% (ties excluded): N#Cc1c(=O)c2nc(NCc3ccccc3)ncc2n2ccccc12
Marked response: 1

Exam item: Determine whether this compound shows GTP binding, percent of control lower than 70% (ties excluded): Cc1ccc(-c2cn3cccc(C)c3n2)cc1
Marked response: -1

Exam item: Determine whether this compound shows GTP binding, percent of control lower than 70% (ties excluded): Cc1ccc2nc(CSc3nc(C)cc(C)c3C#N)[nH]c2c1
Marked response: -1

Exam item: Determine whether this compound shows GTP binding, percent of control lower than 70% (ties excluded): O=C(Nc1ccc(S(=O)(=O)N2CCCc3ccccc32)cc1)C1CCCO1 (stereo not given)
Marked response: -1

Exam item: Determine whether this compound shows GTP binding, percent of control lower than 70% (ties excluded): CCCCOC(=O)c1cccnc1SCCc1ccccc1
Marked response: -1

Exam item: Determine whether this compound shows GTP binding, percent of control lower than 70% (ties excluded): O=S1(=O)N=C(N=Nc2c(O)[nH]c3ccccc23)c2ccccc21
Marked response: 1

Exam item: Determine whether this compound shows GTP binding, percent of control lower than 70% (ties excluded): CCOc1ccccc1C1C(C(=O)OC)=C(N)OC2=C1C(=O)CCC2 (stereo not given)
Marked response: -1

Exam item: Determine whether this compound shows GTP binding, percent of control lower than 70% (ties excluded): CCCCCCNc1cc2n(c(=O)n1)CCc1cc(OC)c(OC)cc1-2
Marked response: -1

Exam item: Determine whether this compound shows GTP binding, percent of control lower than 70% (ties excluded): O=C(O)c1ccccc1OCc1ccccc1Br
Marked response: -1

Exam item: Determine whether this compound shows GTP binding, percent of control lower than 70% (ties excluded): O=C(O)CC/C(=C\c1ccc(N2CCCC2)c([N+](=O)[O-])c1)c1nc2ccccc2s1
Marked response: -1

Exam item: Determine whether this compound shows GTP binding, percent of control lower than 70% (ties excluded): Cc1cc(-c2nnc3n2N=C(c2ccc(-c4ccccc4)cc2)CS3)n[nH]1
Marked response: -1

Exam item: Determine whether this compound shows GTP binding, percent of control lower than 70% (ties excluded): Nc1nonc1C(=O)NCCN=Cc1cc(Cc2ccccc2)cc(Br)c1O
Marked response: 1

Exam item: Determine whether this compound shows GTP binding, percent of control lower than 70% (ties excluded): Cc1nc(-c2cnn(-c3ccccc3)c2)c2cc(C)oc2n1
Marked response: -1

Exam item: Determine whether this compound shows GTP binding, percent of control lower than 70% (ties excluded): O=C(Nc1c(F)cccc1F)c1cnc(N2CCN(c3ccccn3)CC2)c2ccccc12
Marked response: -1

Exam item: Determine whether this compound shows GTP binding, percent of control lower than 70% (ties excluded): COc1ccc(S(=O)(=O)N2CCOCC2)cc1C(=O)Nc1nc2ccccc2s1
Marked response: 1

Exam item: Determine whether this compound shows GTP binding, percent of control lower than 70% (ties excluded): COc1ccc(CC(C)N2CCN(Cc3ccccc3)CC2)c(OC)c1 (stereo not given)
Marked response: -1

Exam item: Determine whether this compound shows GTP binding, percent of control lower than 70% (ties excluded): CN(/N=C/C=C/c1ccccc1)C1=NS(=O)(=O)c2ccccc21
Marked response: 1

Exam item: Determine whether this compound shows GTP binding, percent of control lower than 70% (ties excluded): O=c1c2ccccc2nc2c3ccccc3c(NCc3ccco3)nn12
Marked response: -1

Exam item: Determine whether this compound shows GTP binding, percent of control lower than 70% (ties excluded): Cn1cccc1/C=C1\SC(=S)N(NC(=O)c2ccccc2Cl)C1=O
Marked response: 1
